- SYSTEM UNDER TEST: UniProt P14416
- Sequence (P14416 whole entry): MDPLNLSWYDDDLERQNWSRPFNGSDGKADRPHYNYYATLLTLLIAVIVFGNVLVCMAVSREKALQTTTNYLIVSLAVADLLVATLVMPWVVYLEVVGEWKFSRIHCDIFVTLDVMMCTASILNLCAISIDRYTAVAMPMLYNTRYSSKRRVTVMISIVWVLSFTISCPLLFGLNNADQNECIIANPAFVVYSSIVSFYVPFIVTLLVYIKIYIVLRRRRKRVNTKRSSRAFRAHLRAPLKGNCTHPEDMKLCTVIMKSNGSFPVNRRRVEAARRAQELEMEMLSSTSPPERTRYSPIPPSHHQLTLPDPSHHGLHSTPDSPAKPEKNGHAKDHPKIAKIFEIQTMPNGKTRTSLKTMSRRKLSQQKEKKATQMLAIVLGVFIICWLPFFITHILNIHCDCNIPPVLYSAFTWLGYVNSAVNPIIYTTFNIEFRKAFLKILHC
- TEST SUMMARY: Displacement of [3H]N-methylspiperone from human dopamine D2 receptor expressed in human HEK293 cell membrane for 1 hr by liquid scintillation counting analysis
pKi: −log10 of the molar value.

[
  {
    "COMPOUND": "O=C(NCCC(CF)N1CCN(c2cccc(Cl)c2Cl)CC1)c1cc2ccccc2o1 (stereo unspecified)",
    "pKi": 5.13
  }
]
